# PROCEDURE_DETAILS: Stability in aqueous solution, amount of related substances under long-term storage conditions
# Type: physicochemical
# MEASUREMENT_CONTEXT: glass vial, 25° C., 75% RH
Non-standard residues stand in square brackets, D forms with d. Residues, ends and D or L forms follow the SMILES beside them. ξ: configuration not given here. Hyp = O=C(O)[C@@H]1C[C@@H](O)CN1; Ile(3ξ) = CCC(C)[C@H](N)C(=O)O
Give Amount of related substances (%; after 12 weeks) for every item shown.
One number for each entry, in %.

// each listed compound needs a value for Amount of related substances (%; after 12 weeks)
1. CC(C)C[C@H](NC(=O)[C@H](CC(C)C)NC(=O)[C@H](CC(=O)O)NC(=O)[C@H](CCC(N)=O)NC(=O)CNC(=O)[C@@H]1C[C@@H](O)CN1)C(=O)N[C@@H](C)C(=O)NCC(=O)N1CCC[C@H]1C(=O)N[C@@H](CCCCN)C(=O)O [YDE-017, HyP-Gly-Gln-Asp-Leu-Leu-Ala-Gly-Pro-Lys] (H-[Hyp]GQDLLAGPK-OH)
2. CC(C)C[C@H](NC(=O)[C@H](Cc1c[nH]cn1)NC(=O)[C@H](CC(=O)O)NC(=O)[C@H](CCC(N)=O)NC(=O)CNC(=O)[C@@H]1C[C@@H](O)CN1)C(=O)N[C@@H](C)C(=O)NCC(=O)N1CCC[C@H]1C(=O)N[C@@H](CCCCN)C(=O)O [YDE-022, HyP-Gly-Gln-Asp-His-Leu-Ala-Gly-Pro-Lys] (H-[Hyp]GQDHLAGPK-OH)
3. CC(C)C[C@H](NC(=O)CNC(=O)[C@H](CCC(N)=O)NC(=O)[C@H](CCC(N)=O)NC(=O)CNC(=O)[C@@H]1C[C@@H](O)CN1)C(=O)N[C@@H](C)C(=O)NCC(=O)N1CCC[C@H]1C(=O)N[C@@H](CCCCN)C(=O)O [YDE-003, HyP-Gly-Gln-Gln-Gly-Leu-Ala-Gly-Pro-Lys] (H-[Hyp]GQQGLAGPK-OH)
4. CC(C)C[C@H](NC(=O)CNC(=O)[C@H](CO)NC(=O)[C@H](CCC(N)=O)NC(=O)CNC(=O)[C@@H]1C[C@@H](O)CN1)C(=O)N[C@@H](C)C(=O)NCC(=O)N1CCC[C@H]1C(=O)N[C@@H](CCCCN)C(=O)O [YDE-006, HyP-Gly-Gln-Ser-Gly-Leu-Ala-Gly-Pro-Lys] (H-[Hyp]GQSGLAGPK-OH)

1: 11.88; 2: 19.23; 3: 6.86; 4: 3.67

// each listed compound needs a value for Amount of related substances (%; after 12 weeks)
1. CC(C)C[C@H](NC(=O)[C@H](Cc1ccccc1)NC(=O)[C@H](CC(=O)O)NC(=O)[C@H](CCC(N)=O)NC(=O)CNC(=O)[C@@H]1C[C@@H](O)CN1)C(=O)N[C@@H](C)C(=O)NCC(=O)N1CCC[C@H]1C(=O)N[C@@H](CCCCN)C(=O)O [YDE-019, HyP-Gly-Gln-Asp-Phe-Leu-Ala-Gly-Pro-Lys] (H-[Hyp]GQDFLAGPK-OH)
2. CC(C)C[C@H](NC(=O)CNC(=O)[C@H](Cc1ccc(O)cc1)NC(=O)[C@H](CCC(N)=O)NC(=O)CNC(=O)[C@@H]1C[C@@H](O)CN1)C(=O)N[C@@H](C)C(=O)NCC(=O)N1CCC[C@H]1C(=O)N[C@@H](CCCCN)C(=O)O [YDE-013, HyP-Gly-Gln-Tyr-Gly-Leu-Ala-Gly-Pro-Lys] (H-[Hyp]GQYGLAGPK-OH)
3. CC(C)C[C@H](NC(=O)CNC(=O)[C@H](CC(C)C)NC(=O)[C@H](CCC(N)=O)NC(=O)CNC(=O)[C@@H]1C[C@@H](O)CN1)C(=O)N[C@@H](C)C(=O)NCC(=O)N1CCC[C@H]1C(=O)N[C@@H](CCCCN)C(=O)O [YDE-011, HyP-Gly-Gln-Leu-Gly-Leu-Ala-Gly-Pro-Lys] (H-[Hyp]GQLGLAGPK-OH)
4. CC(C)C[C@H](NC(=O)CNC(=O)[C@H](Cc1cnc[nH]1)NC(=O)[C@H](CCC(N)=O)NC(=O)CNC(=O)[C@@H]1C[C@@H](O)CN1)C(=O)N[C@@H](C)C(=O)NCC(=O)N1CCC[C@H]1C(=O)N[C@@H](CCCCN)C(=O)O [YDE-004, HyP-Gly-Gln-His-Gly-Leu-Ala-Gly-Pro-Lys] (H-[Hyp]GQHGLAGPK-OH)

1: 13.43; 2: 5.92; 3: 3.83; 4: 2.11

// each listed compound needs a value for Amount of related substances (%; after 12 weeks)
1. CC(C)C[C@H](NC(=O)CNC(=O)[C@H](Cc1c[nH]c2ccccc12)NC(=O)[C@H](CCC(N)=O)NC(=O)CNC(=O)[C@@H]1C[C@@H](O)CN1)C(=O)N[C@@H](C)C(=O)NCC(=O)N1CCC[C@H]1C(=O)N[C@@H](CCCCN)C(=O)O [YDE-014, HyP-Gly-Gln-Trp-Gly-Leu-Ala-Gly-Pro-Lys] (H-[Hyp]GQWGLAGPK-OH)
2. CC(C)C[C@H](NC(=O)[C@H](Cc1c[nH]c2ccccc12)NC(=O)[C@H](CC(=O)O)NC(=O)[C@H](CCC(N)=O)NC(=O)CNC(=O)[C@@H]1C[C@@H](O)CN1)C(=O)N[C@@H](C)C(=O)NCC(=O)N1CCC[C@H]1C(=O)N[C@@H](CCCCN)C(=O)O [YDE-021, HyP-Gly-Gln-Asp-Trp-Leu-Ala-Gly-Pro-Lys] (H-[Hyp]GQDWLAGPK-OH)
3. CC(C)C[C@H](NC(=O)[C@H](CO)NC(=O)[C@H](CC(=O)O)NC(=O)[C@H](CCC(N)=O)NC(=O)CNC(=O)[C@@H]1C[C@@H](O)CN1)C(=O)N[C@@H](C)C(=O)NCC(=O)N1CCC[C@H]1C(=O)N[C@@H](CCCCN)C(=O)O [YDE-023, HyP-Gly-Gln-Asp-Ser-Leu-Ala-Gly-Pro-Lys] (H-[Hyp]GQDSLAGPK-OH)
4. CCC(C)[C@H](NC(=O)[C@H](CC(=O)O)NC(=O)[C@H](CCC(N)=O)NC(=O)CNC(=O)[C@@H]1C[C@@H](O)CN1)C(=O)N[C@@H](CC(C)C)C(=O)N[C@@H](C)C(=O)NCC(=O)N1CCC[C@H]1C(=O)N[C@@H](CCCCN)C(=O)O (stereo partly drawn) [YDE-016, HyP-Gly-Gln-Asp-Ile-Leu-Ala-Gly-Pro-Lys] (H-[Hyp]GQD[Ile(3ξ)]LAGPK-OH)

[6.72, 21.33, 30.66, 11.33]

Data provenance is patent US12037415B2.
